Data origin: patent US20080293679A1

assay: Lipid peroxide levels in DLPC multilamellar vesicles, C/P 0.2 (triiodide assay); type: biochemical; conditions: 48 Hour, carotenoid 1 μM; control 572 ± 76; mean ± S.D.
experimental readout: Lipid Peroxide Levels (µM)
Write the number in µM without appending the unit.

Input: Which Lipid Peroxide Levels reading was recorded for the compound CC1=C(/C=C/C(C)=C/C=C/C(C)=C/C=C/C=C(C)/C=C/C=C(C)/C=C/C2=C(C)C(=O)[C@@H](O)CC2(C)C)C(C)(C)C[C@H](O)C1=O [Astaxanthin, 3,3′-dihydroxy-β,β′-carotene-4,4′-dione] ?
Output: 500

Input: Which Lipid Peroxide Levels reading was recorded for the compound CC(C)=CCC/C(C)=C/C=C/C(C)=C/C=C/C(C)=C/C=C/C=C(C)/C=C/C=C(C)/C=C/C=C(\C)CCC=C(C)C ?
Output: 647

Input: Which Lipid Peroxide Levels reading was recorded for the compound CC1=C(/C=C/C(C)=C/C=C/C(C)=C/C=C/C=C(C)/C=C/C=C(C)/C=C/C2=C(C)CCCC2(C)C)C(C)(C)CCC1 ?
Output: 803

Input: Which Lipid Peroxide Levels reading was recorded for the compound CC1=CC(O)CC(C)(C)C1/C=C/C(C)=C/C=C/C(C)=C/C=C/C=C(C)/C=C/C=C(C)/C=C/C1=C(C)CC(O)CC1(C)C (centres unmarked) ?
Output: 649

Input: Which Lipid Peroxide Levels reading was recorded for the compound CC1=C(/C=C/C(C)=C/C=C/C(C)=C/C=C/C=C(C)/C=C/C=C(C)/C=C/C2=C(C)C[C@@H](O)CC2(C)C)C(C)(C)C[C@H](O)C1 ?
Output: 605

* * *

assay: Lipid peroxide levels in DLPC multilamellar vesicles, C/P 0.2 (triiodide assay); assay type: biochemical; details: 24 Hour, carotenoid 10 μM
Marks after values point to notes of the source that are not given here.
experimental readout: % increase (+) or decrease (−) of lipid peroxide levels compared to control

Input: Which % increase (+) or decrease (−) of lipid peroxide levels compared to control reading was recorded for the molecule CC(C)=CCC/C(C)=C/C=C/C(C)=C/C=C/C(C)=C/C=C/C=C(C)/C=C/C=C(C)/C=C/C=C(\C)CCC=C(C)C [Lycopene] ?
Output: +85.8%^a

Input: Which % increase (+) or decrease (−) of lipid peroxide levels compared to control reading was recorded for the molecule CC1=CC(O)CC(C)(C)C1/C=C/C(C)=C/C=C/C(C)=C/C=C/C=C(C)/C=C/C=C(C)/C=C/C1=C(C)CC(O)CC1(C)C (stereo not drawn) [Lutein, β,ε-carotene-3,3′-diol] ?
Output: +0.9%^a

Input: Which % increase (+) or decrease (−) of lipid peroxide levels compared to control reading was recorded for the molecule CC1=C(/C=C/C(C)=C/C=C/C(C)=C/C=C/C=C(C)/C=C/C=C(C)/C=C/C2=C(C)C(=O)[C@@H](O)CC2(C)C)C(C)(C)C[C@H](O)C1=O [Astaxanthin, 3,3′-dihydroxy-β,β′-carotene-4,4′-dione] ?
Output: −22.5%
